# Test system: OV90
# Assay Name: Primary qHTS to identify gynecologic anti-cancer compounds using libraries of approved drugs and bioactive compounds (AID 1345084); further: on the % scale 0 is the no-effect control and ±100 the full control effect; nearly all actives have a fitted effect of over 55% in size
# Test Context: Gynecologic cancer cell panel viability, ATPlite luminescence, 48 h; series mostly up to 57.5 µM
Records with an inconclusive call do not appear. The source made the active and inactive calls. The call rests on the fitted dose curve; in most records, active means well fitted cell-killing curve with a large enough effect; inconclusive means small, poorly fitted or top-dose-only effect, or effect the other way; inactive means flat fitted curve, though single readings scatter.
Recorded Metric: activity change, negative = cytotoxicity

Recorded activity change, negative = cytotoxicity, per entry:
{"Compound": "Cc1occc1C(=O)n1ccnc1", "activity change, negative = cytotoxicity": "inactive"}
{"Compound": "O=C(O)CC1CCC(c2ccc(NC(=O)c3nnc(Nc4ccc(F)c(F)c4)o3)cc2)CC1 (configuration not stated)", "activity change, negative = cytotoxicity": "inactive"}
{"Compound": "COC(=O)C1=CO[C@@H](O[C@@H]2O[C@H](CO)[C@@H](O)[C@H](O)[C@H]2O)[C@@H]2[C@@H](C(=O)O)CC[C@H]12", "activity change, negative = cytotoxicity": "inactive"}
{"Compound": "COC(=O)C1=COC(OC2OC(CO)C(O)C(O)C2O)C2C(C)C(OC(=O)/C=C/c3ccc(O)cc3)C(O)C12 (configuration not stated)", "activity change, negative = cytotoxicity": "inactive"}
{"Compound": "C=C1CCC2(C(=O)OC3OC(CO)C(O)C(O)C3O)CCC3(C)C(=CCC4C5(C)CCC(OC6OC(CO)C(OC7OC(C)C(O)C(O)C7O)C(OC7OCC(O)C(O)C7O)C6O)C(C)(C)C5CCC43C)C2C1 (configuration not stated)", "activity change, negative = cytotoxicity": "9.22% [at 11.6 µM] (inactive)"}

Request: # lookup: activity change, negative = cytotoxicity of CC1(C)CC=C(C#Cc2ccccc2)c2cc(/C=C/c3ccc(C(=O)O)cc3)ccc21
Result: inactive

Request: Consider next the compound CC1(C)CC[C@]2(C(=O)O[C@@H]3O[C@H](CO[C@@H]4O[C@H](CO)[C@@H](O)[C@H](O)[C@H]4O)[C@@H](O)[C@H](O[C@@H]4O[C@H](CO)[C@@H](O)[C@H](O)[C@H]4O)[C@H]3O)[C@H](O)C[C@]3(C)C(=CCC4[C@@]5(C)CC[C@H](O[C@@H]6OC[C@@H](O)[C@H](O)[C@H]6O)[C@@](C)(C(=O)O)C5CC[C@]43C)[C@@H]2C1 (some centres not stated) in the same way.
Result: 6.96% [at 11.6 µM] (inactive)

====

# Tested on: HACAT
# Assay Name: qHTS assay to identify novel small-molecules to repurpose for Merkel cell carcinoma treatment (AID 1296009); further: nearly all actives have a fitted effect of over 60% in size
# Test Context: MCC and control cell lines, CellTiter-Glo viability, 72 h; at 44.8 µM (top of the series) unless noted
Records with an inconclusive call do not appear. Activity calls are given as the source filed them. Calls follow the shape of the dose curve; as a rule, active = well fitted inhibition curve with a large enough effect; inconclusive = small, poorly fitted or top-dose-only effect; inactive = flat fitted curve, though single readings scatter. Where a SMILES comes first, the peptide text is derived from it. The star is where a group is joined. PhAc = O=C(Cc1ccccc1)*
Recorded Metric: outcome

Recorded outcome, per entry:
{"Compound": "C=CCc1cc(OC)c(OC(C)C(O)c2ccc(O)c(OC)c2)c(OC)c1 (centres undefined)", "outcome": "inactive"}
{"Compound": "C=C1C[C@]23C[C@H]1CC[C@H]2[C@]1(C)CC[C@H](O)[C@@](C)(C(=O)O)[C@H]1[C@@H]3C(=O)O", "outcome": "inactive"}
{"Compound": "C/C=C1/CC2C(=O)Nc3cc(O)c(OC)cc3C(=O)N2C1 (centres undefined)", "outcome": "inactive"}
{"Compound": "CCOC(=O)CNC(=O)[C@@H]1CCCN1C(=O)Cc1ccccc1 (PhAc-Pro-Gly-OEt)", "outcome": "inactive"}
{"Compound": "CC(=O)O[C@@H]1[C@@H](O)[C@H](C)O[C@@H](O[C@H]2[C@@H]3C=CO[C@@H](O[C@@H]4O[C@H](CO)[C@@H](O)[C@H](O)[C@H]4OC(C)=O)[C@@H]3[C@@]3(CO)O[C@@H]23)[C@@H]1OC(=O)/C=C/c1ccc(O)cc1", "outcome": "inactive [at 17.4 µM]"}

Request: What reported outcome corresponds to CCC1OC(=O)C(C)CC(C)C(=O)/C(C)=C/C(C)C(=O)/C=C/C1(C)O (centres undefined) on HACAT?
Result: inactive

Request: Consider next the compound COC1OC(OC)C(O)(CCC2(C)C(C)CCC3(C)C2CC(O)C(O)C32CO2)C1O (centres undefined) in the same way.
Result: inactive [at 17.4 µM]

Request: Consider next the compound CCOc1nc2c(N)ncnc2n1CC in the same way.
Result: inactive

Request: Consider next the compound C=C(CCO)C(=O)OCC1OCC(OC(=O)C(=C)CCO[C@@H]2O[C@H](CO)[C@@H](O)[C@H](O)[C@H]2O)C(O)C1O (some centres undefined) in the same way.
Result: inactive [at 17.4 µM]

Request: Consider next the compound CCC(C)/C=C(C)/C=C/C1=CC2=C(Cl)C(=O)C(C)(OC(C)=O)C(=O)C2=CN1CCCCC(N)C(=O)O (centres undefined) in the same way.
Result: inactive [at 17.4 µM]

Request: Consider next the compound CC1(C)CCC2(C(=O)O)CCC3(C)C(=CCC4C5(C)CCC(O)C(C)(CO)C5C(O)CC43C)C2C1 (centres undefined) in the same way.
Result: inactive [at 17.4 µM]

Request: Consider next the compound CC1(C)C2CC[C@]3(C)C(C(=O)C=C4[C@H]5C[C@@](C)(C(=O)O)CC[C@]5(C)CC[C@]43C)[C@@]2(C)CC[C@@H]1O (some centres undefined) in the same way.
Result: inactive [at 17.4 µM]

Values were extracted from PubChem BioAssay (NCATS).
